Target: T1, human IL-36γ, truncated (human, UniProt Q9NZH8 18-169)
T1 sequence: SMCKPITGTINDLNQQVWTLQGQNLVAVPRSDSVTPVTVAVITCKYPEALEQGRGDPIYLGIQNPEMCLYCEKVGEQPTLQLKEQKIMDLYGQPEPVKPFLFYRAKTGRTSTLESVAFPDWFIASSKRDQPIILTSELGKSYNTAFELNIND
Assay: cell-based or functional assay
assay endpoint: IC50 of IL-8 secretion, primary human monocytes, 6 nM human IL-36γ, FIG. 5C

Consider the worked cases shown below.
INSERT INTO measurements (binder, test_result) VALUES
  ('144L249B (antibody, V domains shown, Mouse monoclonal from hybridoma; mouse IgG heavy and lambda light chain; also called mouse antibody 144L249B) VH: EVQLQQSGAELVKPGASVKLSCTASGFNIKDTYIYWVKQRPEQGLEWIGRIDPAIGTTRYDPKFQGKATLTADTSSNTAFLQLSSLTSEDTAVYYCARYDYSGSSFYFDYWGRGTTLTVSS VL: QAVVTQESALTTSPGETVTLTCRSSTGAVTTSNYANWVQEKPDHLFTGLIGGTNNRAPGVPARFSGSLIGDKAALTITGAQTEDEAIYFCALWYSNHLVFGGGTKLTVL', '12 nM'),
  ('144L124B (antibody, V domains shown, Mouse monoclonal from hybridoma; mouse IgG heavy and lambda light chain; Same VH and VL as 144L180A) VH: EVQLQQSGAELVKPGASVKLSCTASGFNIKDTYIYWVKQRPEQGLEWIGRIDPANGYTRYDPKFQGKATMTADTSSNTAYLQLSSLTSEDTAVYYCARYEYYDSSFYFDYWGQGTTLTVSS VL: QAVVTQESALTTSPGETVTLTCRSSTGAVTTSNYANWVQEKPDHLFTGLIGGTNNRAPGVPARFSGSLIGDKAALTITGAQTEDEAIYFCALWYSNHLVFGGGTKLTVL', '19.1 nM');

Suppose we examine the binder 144D464A (antibody, V domains shown, Mouse monoclonal from hybridoma; mouse IgG heavy and lambda light chain; also called mouse antibody 144D464A) VH: EVQLQQSGAELVKPGASVRLSCTASGFNIKDTYIHWVKQRPEQGLEWIGRIDPAIGTTRYDPKFQGKATITTDTSSDTVHLQFSSLTSEDTAVYYCARLHYFGNNFFFDYWGQGTTLTVSS VL: QAVVTQESALTTSPGEAVTLTCRSSSGAVTTSNYANWVQEKPDHLFAGLIGGTNDRAPGVPARFSGSLIGDKAALTITGAQTEDEAIYFCALWFSNHWVFGGGTKLTVL ; what IC50 of IL-8 secretion, primary human monocytes, 6 nM human IL-36γ, FIG. 5C value has been reported? 13.2 nM
